Test system: Pseudomonas aeruginosa
Format: cell-based
Numbered stars: 1 amine (or outer) side, 2 acyl side, 3 side chain; on linkers, the order of the positions; unused ones are H or OH. Bridge positions count the residues as written; N and C are the ends. Square brackets hold non-standard residues; d marks the D form. Peptide text beside a SMILES is read from it. * marks the point of attachment. ξ: configuration not given here. X12 = O=C([C@@H](Cc1ccc(C2CCCCC2)cc1)N[*:1])[*:2]; dCha = N[C@H](CC1CCCCC1)C(=O)O; Thr(3ξ) = CC(O)[C@H](N)C(=O)O; X4 = CC(C)CC1CNCC(C(=O)*)C1; Dab = NCC[C@H](N)C(=O)O; X6 = CCCCCCC(CCN)C(=O)*; Dap = NC[C@H](N)C(=O)O; X2 = CC(C)CC(CN)C(=O)*
quantity: MIC P. aeruginosa 068
Form entry: enter the amount, then its unit.

| molecule | MIC P. aeruginosa 068 |
| --- | --- |
| CC(C)CC1CNCC(C(=O)N[C@H](C(=O)N[C@@H](CCN)C(=O)N[C@H]2CCNC(=O)[C@H]([C@@H](C)O)NC(=O)[C@H](CCN)NC(=O)[C@H](CCN)NC(=O)[C@H](CC(C)C)NC(=O)[C@@H](CC3CCCCC3)NC(=O)[C@H](CCN)NC2=O)[C@@H](C)O)C1 (stereo partly drawn) [Example 73] (X4-T[Dab][Dab][Dab][dCha]L[Dab][Dab]T; lactam 3-C) | 1 µg/mL |
| CC(C)CC(CN)C(=O)N[C@H](C(=O)N[C@@H](CN)C(=O)N[C@H]1CCNC(=O)[C@H]([C@@H](C)O)NC(=O)[C@H](CCN)NC(=O)[C@H](CCN)NC(=O)[C@H](CC(C)C)NC(=O)[C@@H](Cc2ccc(Br)cc2)NC(=O)[C@H](CCN)NC1=O)C(C)O (single isomer, unassigned; isomer 1) [Example 13] | 32 µg/mL |
| CC(C)CC(CN)C(=O)N[C@H](C(=O)N[C@@H](CN)C(=O)N[C@H]1CCNC(=O)[C@H]([C@@H](C)O)NC(=O)[C@H](CCN)NC(=O)[C@H](CCN)NC(=O)[C@H](CC(C)C)NC(=O)[C@@H](Cc2ccc(C3CCCCC3)cc2)NC(=O)[C@H](CCN)NC1=O)C(C)O (stereo partly drawn) [Example 27] (X2-[Thr(3ξ)][Dap][Dab][Dab][X12]L[Dab][Dab]T; lactam 3-C) | 4 µg/mL |
| CC(C)CC(CN)C(=O)N[C@H](C(=O)N[C@@H](CN)C(=O)N[C@H]1CCNC(=O)[C@H]([C@@H](C)O)NC(=O)[C@H](CCN)NC(=O)[C@H](CCN)NC(=O)[C@H](CC(C)C)NC(=O)[C@@H](Cc2ccc(-c3ccccc3)cc2)NC(=O)[C@H](CCN)NC1=O)C(C)O (single isomer, unassigned; isomer 2) [Example 16] | 4 µg/mL |
| CC(C)CC1CNCC(C(=O)N[C@H](C(=O)N[C@@H](CN)C(=O)N[C@H]2CCNC(=O)[C@H]([C@@H](C)O)NC(=O)[C@H](CCN)NC(=O)[C@H](CCN)NC(=O)[C@H](CC(C)C)NC(=O)[C@@H](Cc3ccc(-c4ccccc4)cc3)NC(=O)[C@H](CCN)NC2=O)C(C)O)C1 (single isomer, unassigned; isomer 1) [Example 3] | 4 µg/mL |

Recorded MIC P. aeruginosa 068 of CCCCCCC(CCN)C(=O)N[C@H](C(=O)N[C@@H](CCN)C(=O)N[C@H]1CCNC(=O)[C@H]([C@@H](C)O)NC(=O)[C@H](CCN)NC(=O)[C@H](CCN)NC(=O)[C@H](CC(C)C)NC(=O)[C@@H](Cc2ccccc2)NC(=O)[C@H](CCN)NC1=O)C(C)O (stereo partly drawn) [Example C5, reference compound] (X6-[Thr(3ξ)][Dab][Dab][Dab][dF]L[Dab][Dab]T; lactam 3-C) , please. 8 µg/mL

====

Tested on: Escherichia coli
Type: cell-based
Entries and their MIC E. coli 058 values follow.
Reply with just the number (in µg/mL).

Here's what some known entries look like.
| compound | MIC E. coli 058 / µg/mL |
| --- | --- |
| CC(C)CCC(CCN)C(=O)N[C@H](C(=O)N[C@@H](CCN)C(=O)N[C@H]1CCNC(=O)[C@H]([C@@H](C)O)NC(=O)[C@H](CCN)NC(=O)[C@H](CCN)NC(=O)[C@H](CC(C)C)NC(=O)[C@@H](CC2CCCCC2)NC(=O)[C@H](CCN)NC1=O)[C@@H](C)O (single isomer, unassigned; isomer 2) [Example 89] | 16 |
| CC(C)CC(CN)C(=O)N[C@H](C(=O)N[C@@H](CN)C(=O)N[C@H]1CCNC(=O)[C@H]([C@@H](C)O)NC(=O)[C@H](CCN)NC(=O)[C@H](CCN)NC(=O)[C@H](CC(C)C)NC(=O)[C@@H](Cc2ccc(Br)cc2)NC(=O)[C@H](CCN)NC1=O)C(C)O (single isomer, unassigned; isomer 2) [Example 14] | 4 |

Turning to the following compound.
Data request, read-out MIC E. coli 058, for CC(C)C[C@@H]1NC(=O)[C@@H](CC2CCCCC2)NC(=O)[C@H](CCN)NC(=O)[C@@H](NC(=O)[C@H](CN)NC(=O)[C@@H](NC(=O)C(CN)Cc2ccccc2)C(C)O)CCNC(=O)[C@H]([C@@H](C)O)NC(=O)[C@H](CCN)NC(=O)[C@H](CCN)NC1=O (single isomer, unassigned; isomer 2) [Example 34] 2

====

Tested on: Acinetobacter baumannii
Format: cell-based
Numbered stars: 1 amine (or outer) side, 2 acyl side, 3 side chain; on linkers, the order of the positions; unused ones are H or OH. Bridge positions count the residues as written; N and C are the ends. Square brackets hold non-standard residues; d marks the D form. Peptide text beside a SMILES is read from it. * marks the point of attachment. ξ: configuration not given here. X11 = O=C([C@@H](Cc1ccc(-c2ccncc2)cc1)N[*:1])[*:2]; X12 = O=C([C@@H](Cc1ccc(C2CCCCC2)cc1)N[*:1])[*:2]; Octanoyl(6-Me) = CCC(C)CCCCC(=O)*; X27 = NCCC(C(=O)*)c1cccc(Cl)c1; dCha = N[C@H](CC1CCCCC1)C(=O)O; Thr(3ξ) = CC(O)[C@H](N)C(=O)O; X25 = CCCCO[C@@H](CCN)C(=O)*; X4 = CC(C)CC1CNCC(C(=O)*)C1; X15 = NCCC(CC1CCCC1)C(=O)*; X22 = NC(CCC(=O)*)C1CCCCC1; Dab = NCC[C@H](N)C(=O)O; Dap = NC[C@H](N)C(=O)O; X2 = CC(C)CC(CN)C(=O)*
quantity: MIC A. baumanii ATCC BAA-747 (µg/mL)
Please state the figure in µg/mL; there is no need to write the unit.

Answered examples (10):
| molecule | test_target | test_value |
| --- | --- | --- |
| CC(C)C[C@@H]1NC(=O)[C@@H](CC2CCCCC2)NC(=O)[C@H](CCN)NC(=O)[C@@H](NC(=O)[C@H](CN)NC(=O)[C@@H](NC(=O)C(CCN)c2cccc(Cl)c2)[C@@H](C)O)CCNC(=O)[C@H]([C@@H](C)O)NC(=O)[C@H](CCN)NC(=O)[C@H](CCN)NC1=O (some centres unmarked) [Example 79] (X27-T[Dap][Dab][Dab][dCha]L[Dab][Dab]T; lactam 3-C) | Acinetobacter baumannii | 0.25 |
| CC(C)C[C@@H]1NC(=O)[C@@H](CC2CCCCC2)NC(=O)[C@H](CCN)NC(=O)[C@@H](NC(=O)[C@H](CCN)NC(=O)[C@@H](NC(=O)C(CCN)c2cccs2)[C@@H](C)O)CCNC(=O)[C@H]([C@@H](C)O)NC(=O)[C@H](CCN)NC(=O)[C@H](CCN)NC1=O (single isomer, unassigned; isomer 2) [Example 70] | Acinetobacter baumannii | 0.25 |
| CC(C)C[C@@H]1NC(=O)[C@@H](CC2CCCCC2)NC(=O)[C@H](CCN)NC(=O)[C@@H](NC(=O)[C@H](CN)NC(=O)[C@@H](NC(=O)C(CCN)Cc2cccc(F)c2)C(C)O)CCNC(=O)[C@H]([C@@H](C)O)NC(=O)[C@H](CCN)NC(=O)[C@H](CCN)NC1=O (single isomer, unassigned; isomer 2) [Example 45] | Acinetobacter baumannii | 0.25 |
| CCCCO[C@@H](CCN)C(=O)N[C@H](C(=O)N[C@@H](CN)C(=O)N[C@H]1CCNC(=O)[C@H]([C@@H](C)O)NC(=O)[C@H](CCN)NC(=O)[C@H](CCN)NC(=O)[C@H](CC(C)C)NC(=O)[C@@H](CC2CCCCC2)NC(=O)[C@H](CCN)NC1=O)C(C)O (some centres unmarked) [Example 46] (X25-[Thr(3ξ)][Dap][Dab][Dab][dCha]L[Dab][Dab]T; lactam 3-C) | Acinetobacter baumannii | 0.125 |
| CC(C)C[C@@H]1NC(=O)[C@@H](CC2CCCCC2)NC(=O)[C@H](CCN)NC(=O)[C@@H](NC(=O)[C@H](CN)NC(=O)[C@@H](NC(=O)CCC(N)C2CCCCC2)[C@@H](C)O)CCNC(=O)[C@H]([C@@H](C)O)NC(=O)[C@H](CCN)NC(=O)[C@H](CCN)NC1=O (some centres unmarked) [Example 63] (X22-T[Dap][Dab][Dab][dCha]L[Dab][Dab]T; lactam 3-C) | Acinetobacter baumannii | 0.125 |
| CC(C)CC1CNCC(C(=O)N[C@H](C(=O)N[C@@H](CCN)C(=O)N[C@H]2CCNC(=O)[C@H]([C@@H](C)O)NC(=O)[C@H](CCN)NC(=O)[C@H](CCN)NC(=O)[C@H](CC(C)C)NC(=O)[C@@H](CC3CCCCC3)NC(=O)[C@H](CCN)NC2=O)[C@@H](C)O)C1 (some centres unmarked) [Example 73] (X4-T[Dab][Dab][Dab][dCha]L[Dab][Dab]T; lactam 3-C) | Acinetobacter baumannii | 0.25 |
| CCC(C)CCCCC(=O)N[C@@H](CCN)C(=O)N[C@H](C(=O)N[C@@H](CCN)C(=O)N[C@H]1CCNC(=O)[C@H]([C@@H](C)O)NC(=O)[C@H](CCN)NC(=O)[C@H](CCN)NC(=O)[C@H](CC(C)C)NC(=O)[C@@H](Cc2ccc(-c3ccncc3)cc2)NC(=O)[C@H](CCN)NC1=O)C(C)O (some centres unmarked) [Example 1] ({Octanoyl(6-Me)}-[Dab][Thr(3ξ)][Dab][Dab][Dab][X11]L[Dab][Dab]T; lactam 4-C) | Acinetobacter baumannii | 1 |
| CC(C)CC(CN)C(=O)N[C@H](C(=O)N[C@@H](CN)C(=O)N[C@H]1CCNC(=O)[C@H]([C@@H](C)O)NC(=O)[C@H](CCN)NC(=O)[C@H](CCN)NC(=O)[C@H](CC(C)C)NC(=O)[C@@H](Cc2ccc(C3CCCCC3)cc2)NC(=O)[C@H](CCN)NC1=O)C(C)O (some centres unmarked) [Example 27] (X2-[Thr(3ξ)][Dap][Dab][Dab][X12]L[Dab][Dab]T; lactam 3-C) | Acinetobacter baumannii | 0.5 |
| CC(C)CCC(CCN)C(=O)N[C@H](C(=O)N[C@@H](CCN)C(=O)N[C@H]1CCNC(=O)[C@H]([C@@H](C)O)NC(=O)[C@H](CCN)NC(=O)[C@H](CCN)NC(=O)[C@H](CC(C)C)NC(=O)[C@@H](CC2CCCCC2)NC(=O)[C@H](CCN)NC1=O)[C@@H](C)O (single isomer, unassigned; isomer 2) [Example 89] | Acinetobacter baumannii | 0.5 |
| CCCCCC/C=C/c1ccc(C[C@H]2NC(=O)[C@H](CCN)NC(=O)[C@@H](NC(=O)[C@H](CN)NC(=O)[C@@H](NC(=O)C3CNCC(CC(C)C)C3)C(C)O)CCNC(=O)[C@H]([C@@H](C)O)NC(=O)[C@H](CCN)NC(=O)[C@H](CCN)NC(=O)[C@H](CC(C)C)NC2=O)cc1 (single isomer, unassigned; isomer 1) [Example 17] | Acinetobacter baumannii | 2 |

// next entry
// returns reported MIC A. baumanii ATCC BAA-747 for input CC(C)C[C@@H]1NC(=O)[C@@H](CC2CCCCC2)NC(=O)[C@H](CCN)NC(=O)[C@@H](NC(=O)[C@H](CN)NC(=O)[C@@H](NC(=O)C(CCN)CC2CCCC2)[C@@H](C)O)CCNC(=O)[C@H]([C@@H](C)O)NC(=O)[C@H](CCN)NC(=O)[C@H](CCN)NC1=O (some centres unmarked) [Example 75] (X15-T[Dap][Dab][Dab][dCha]L[Dab][Dab]T; lactam 3-C) 0.125
